What MIC was measured for each of the following?
tested on: Escherichia coli; assay: Antibacterial activity against extended-spectrum beta-lactamase producing Escherichia coli 14-2 after 18 to 24 hrs by two-fold serial dilution method; assay type: functional

Task item: What measured MIC goes with CCO/N=C1/CN(c2c(F)cc3c(=O)c(C(=O)O)cn4c3c2OC[C@@H]4C)CC1(C)CNC1CC1 (some centres undefined) ?
Reply: > 128 µg/mL

Task item: What measured MIC goes with C[C@H]1COc2c(N3C/C(=N/OCc4ccccc4)C(CNC4CC4)C3)c(F)cc3c(=O)c(C(=O)O)cn1c23 (some centres undefined) ?
Reply: > 64 µg/mL

Task item: What measured MIC goes with CO/N=C1/CN(c2c(F)cc3c(=O)c(C(=O)O)cn4c3c2OC[C@@H]4C)CC1CNC1CC1 (some centres undefined) ?
Reply: > 64 µg/mL

Task item: What measured MIC goes with O=C(O)c1cn([C@@H]2C[C@@H]2F)c2nc(N3C/C(=N/OCc4ccccc4)C(CNC4CC4)C3)c(F)cc2c1=O (some centres undefined) ?
Reply: > 128 µg/mL

Task item: What measured MIC goes with Nc1nc(-n2cc(C(=O)O)c(=O)c3cc(F)c(N4C/C(=N/OCc5ccccc5)C(CNC5CC5)C4)nc32)c(F)cc1F (centres undefined) ?
Reply: > 128 µg/mL

Task item: What measured MIC goes with CCO/N=C1/CN(c2c(F)cc3c(=O)c(C(=O)O)cn([C@@H]4C[C@@H]4F)c3c2OC)CC1CNC1CC1 (some centres undefined) ?
Reply: > 32 µg/mL

Task item: What measured MIC goes with CC1(CNC2CC2)CN(c2nc3c(cc2F)c(=O)c(C(=O)O)cn3C2CC2)C/C1=N/OCc1ccccc1 (centres undefined) ?
Reply: > 128 µg/mL

Task item: What measured MIC goes with CC1(CNC2CC2)CN(c2nc3c(cc2F)c(=O)c(C(=O)O)cn3[C@@H]2C[C@@H]2F)C/C1=N/OCc1ccccc1 (some centres undefined) ?
Reply: > 64 µg/mL

Task item: What measured MIC goes with CO/N=C1/CN(c2nc3c(cc2F)c(=O)c(C(=O)O)cn3-c2nc(N)c(F)cc2F)CC1(C)CNC1CC1 (centres undefined) ?
Reply: > 128 µg/mL

Task item: What measured MIC goes with CC1(CNC2CC2)CN(c2nc3c(cc2F)c(=O)c(C(=O)O)cn3-c2nc(N)c(F)cc2F)C/C1=N/OCc1ccccc1 (centres undefined) ?
Reply: > 128 µg/mL

Task item: What measured MIC goes with CO/N=C1/CN(c2c(F)cc3c(=O)c(C(=O)O)cn4c3c2OC[C@@H]4CF)CC1(C)CNC1CC1 (some centres undefined) ?
Reply: > 128 µg/mL

Task item: What measured MIC goes with CCO/N=C1/CN(c2nc3c(cc2F)c(=O)c(C(=O)O)cn3C2CC2)CC1CNC1CC1 (centres undefined) ?
Reply: 128 µg/mL

Task item: What measured MIC goes with CO/N=C1/CN(c2nc3c(cc2F)c(=O)c(C(=O)O)cn3C2CC2)CC1(C)CNC1CC1 (centres undefined) ?
Reply: > 128 µg/mL

Task item: What measured MIC goes with CO/N=C1/CN(c2nc3c(cc2F)c(=O)c(C(=O)O)cn3C2CC2)CC1CNC1CC1 (centres undefined) ?
Reply: > 128 µg/mL

Task item: What measured MIC goes with O=C(O)c1cn2c3c(c(N4C/C(=N/OCc5ccccc5)C(CNC5CC5)C4)c(F)cc3c1=O)OC[C@@H]2CF (some centres undefined) ?
Reply: > 64 µg/mL

Task item: What measured MIC goes with CCO/N=C1/CN(c2nc3c(cc2F)c(=O)c(C(=O)O)cn3[C@@H]2C[C@@H]2F)CC1(C)CNC1CC1 (some centres undefined) ?
Reply: > 128 µg/mL

Task item: What measured MIC goes with CO/N=C1/CN(c2nc3c(cc2F)c(=O)c(C(=O)O)cn3[C@@H]2C[C@@H]2F)CC1CNC1CC1 (some centres undefined) ?
Reply: > 128 µg/mL

Task item: What measured MIC goes with O=C(O)c1cn(C2CC2)c2nc(N3C/C(=N/OCc4ccccc4)C(CNC4CC4)C3)c(F)cc2c1=O (centres undefined) ?
Reply: > 128 µg/mL

Task item: What measured MIC goes with CO/N=C1/CN(c2nc3c(cc2F)c(=O)c(C(=O)O)cn3[C@@H]2C[C@@H]2F)CC1(C)CNC1CC1 (some centres undefined) ?
Reply: > 128 µg/mL

Cited source: ChEMBL document CHEMBL3734675
